- experimentalSystem: Ectonucleotide pyrophosphatase/phosphodiesterase family member 3 (Homo sapiens, UniProt O14638)
- Sequence (O14638 whole entry): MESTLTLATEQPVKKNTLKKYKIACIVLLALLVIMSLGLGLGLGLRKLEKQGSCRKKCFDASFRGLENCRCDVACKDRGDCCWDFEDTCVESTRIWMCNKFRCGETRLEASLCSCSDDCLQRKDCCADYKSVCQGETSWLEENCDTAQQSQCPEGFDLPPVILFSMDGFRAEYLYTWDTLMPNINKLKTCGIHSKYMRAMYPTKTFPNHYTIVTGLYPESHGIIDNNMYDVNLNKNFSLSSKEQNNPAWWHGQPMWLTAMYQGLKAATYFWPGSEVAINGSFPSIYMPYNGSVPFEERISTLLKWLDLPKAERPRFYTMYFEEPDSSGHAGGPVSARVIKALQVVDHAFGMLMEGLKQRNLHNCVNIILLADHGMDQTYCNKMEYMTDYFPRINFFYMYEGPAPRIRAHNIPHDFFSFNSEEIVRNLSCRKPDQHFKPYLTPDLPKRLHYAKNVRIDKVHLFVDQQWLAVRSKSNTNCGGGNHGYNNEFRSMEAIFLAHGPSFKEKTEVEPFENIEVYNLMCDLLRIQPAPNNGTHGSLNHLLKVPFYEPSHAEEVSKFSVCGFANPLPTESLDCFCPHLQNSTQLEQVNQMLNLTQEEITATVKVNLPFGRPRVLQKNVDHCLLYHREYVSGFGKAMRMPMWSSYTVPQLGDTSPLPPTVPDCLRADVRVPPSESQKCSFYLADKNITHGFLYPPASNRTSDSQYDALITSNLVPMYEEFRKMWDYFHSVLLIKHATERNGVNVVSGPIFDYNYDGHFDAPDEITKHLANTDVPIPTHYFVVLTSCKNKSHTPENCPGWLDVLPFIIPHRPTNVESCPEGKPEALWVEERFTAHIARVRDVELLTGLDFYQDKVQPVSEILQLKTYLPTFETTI
metricName: Ki (µM)
Expressed in µM, but write only the number.

Consider the compound COc1ccc2nc(SCC(=O)Nc3ccc(OC)c(OC)c3)[nH]c2n1 and give its measured Ki.
68.1
